Data origin, for the record: the supplement of paper PMC9112550

We begin with a simple list: items and their reported shrunken log2 fold change.
tested on: Escherichia coli TOP10; experiment: shrunken log2 fold change of peptide-encoding DNA abundance (4.5 h post-induction vs induction); higher = less antimicrobial activity (less host growth inhibition); conditions: time post-induction: 4.5 h; library: site-saturation at positions 5, 18, 19, 20
Output spec: single numeric token, no unit.

RRIRERPPRLPRPRPRPMRDPRP; 0.365
RRIRFRPPRLPRPRPRPFSPPRP; -1.12
RRIRARPPRLPRPRPRPCVNPRP; 0.194

Item: RRIRLRPPRLPRPRPRPLNDPRP Test system: Escherichia coli TOP10 Read-out: shrunken log2 fold change Value: ? -0.0903

Enter reported shrunken log2 fold change observed with Escherichia coli TOP10 for RRIRVRPPRLPRPRPRPFTLPRP -0.104

----------
system: Escherichia coli TOP10; test: shrunken log2 fold change of peptide-encoding DNA abundance (4.5 h post-induction vs induction); higher = less antimicrobial activity (less host growth inhibition); conditions: time post-induction: 4.5 h; library: site-saturation at positions 5, 18, 19, 20
# reported shrunken log2 fold change; entries follow

Use the examples below as a reference point.
RRIRNRPPRLPRPRPRPCFRPRP; -0.241
RRIRYRPPRLPRPRPRPCHQPRP; -0.00822

Which shrunken log2 fold change is reported for this sequence? RRIRDRPPRLPRPRPRPRPFPRP 0.691

----------
Below, each entry is listed with its recorded shrunken log2 fold change.
test system: Escherichia coli TOP10; test: shrunken log2 fold change of peptide-encoding DNA abundance (4.5 h post-induction vs induction); higher = less antimicrobial activity (less host growth inhibition); details: time post-induction: 4.5 h; library: site-saturation at positions 5, 18, 19, 20
Number only, please.

Some solved entries appear below for comparison.
RRIRKRPPRLPRPRPRPQFVPRP; -0.0281
RRIRARPPRLPRPRPRPVVMPRP; 0.282

// switching to the query sequence
If you can, please state the reported shrunken log2 fold change value of RRIRTRPPRLPRPRPRPRTNPRP . -0.192

----------
# maps each entry to its shrunken log2 fold change
system: Escherichia coli TOP10; assay: shrunken log2 fold change of peptide-encoding DNA abundance (4.5 h post-induction vs induction); higher = less antimicrobial activity (less host growth inhibition); details: time post-induction: 4.5 h; library: site-saturation at positions 5, 18, 19, 20
Write no unit; give the number alone.

Examples from the recorded data:
RRIRVRPPRLPRPRPRPAIKPRP; -0.202
RRIRNRPPRLPRPRPRPTYKPRP; -0.196
RRIRHRPPRLPRPRPRPCIYPRP; -0.196

I would be grateful if you could share the reported shrunken log2 fold change for RRIRHRPPRLPRPRPRPWMGPRP . -0.205

Please look up its shrunken log2 fold change: RRIRLRPPRLPRPRPRPWVWPRP -0.199

----------
tested on: Escherichia coli TOP10; test: shrunken log2 fold change of peptide-encoding DNA abundance (4.5 h post-induction vs induction); higher = less antimicrobial activity (less host growth inhibition); conditions: time post-induction: 4.5 h; library: site-saturation at positions 5, 18, 19, 20
READOUT TYPE: shrunken log2 fold change
No unit in the answer, please; the number alone is enough.

Worked cases, answers included:
RRIRQRPPRLPRPRPRPRGDPRP; 0.346
RRIRHRPPRLPRPRPRPRKAPRP; -0.0445
RRIRHRPPRLPRPRPRPYPHPRP; -0.495
RRIRYRPPRLPRPRPRPAPFPRP; -0.11
RRIRNRPPRLPRPRPRPQAHPRP; -0.163

State its shrunken log2 fold change on Escherichia coli TOP10: RRIRQRPPRLPRPRPRPAPDPRP 0.261

Entry RRIRYRPPRLPRPRPRPICNPRP , system Escherichia coli TOP10: what shrunken log2 fold change was measured? -0.332

Give Escherichia coli TOP10 shrunken log2 fold change for RRIRHRPPRLPRPRPRPHILPRP -0.084

Any idea what shrunken log2 fold change came out for RRIRHRPPRLPRPRPRPIMNPRP on Escherichia coli TOP10? -1.05

State its shrunken log2 fold change on Escherichia coli TOP10: RRIRNRPPRLPRPRPRPTYNPRP -0.692

API: value(readout=shrunken log2 fold change, system=Escherichia coli TOP10) for record RRIRHRPPRLPRPRPRPTQVPRP 0.172

# get_value(readout= shrunken log2 fold change, system= Escherichia coli TOP10) for RRIRRRPPRLPRPRPRPFEHPRP -0.0715

Observed shrunken log2 fold change on Escherichia coli TOP10 for RRIRMRPPRLPRPRPRPSDIPRP , please. -0.192

Recorded shrunken log2 fold change for RRIRIRPPRLPRPRPRPKIKPRP with Escherichia coli TOP10, please? -0.696

Request body: readout shrunken log2 fold change, system Escherichia coli TOP10, query RRIRIRPPRLPRPRPRPDMMPRP . Return the value. 0.0293

Entry RRIRLRPPRLPRPRPRPLPIPRP , system Escherichia coli TOP10: what shrunken log2 fold change was measured? -0.129

For the record RRIRSRPPRLPRPRPRPHQNPRP , what value of shrunken log2 fold change is listed for Escherichia coli TOP10? -0.0421

// lookup shrunken log2 fold change | system=Escherichia coli TOP10 | key= RRIRWRPPRLPRPRPRPQWTPRP 0.787

Hi! What's the reported shrunken log2 fold change for RRIRIRPPRLPRPRPRPKSTPRP on Escherichia coli TOP10? -0.214

# value lookup — system Escherichia coli TOP10, readout shrunken log2 fold change, item RRIRQRPPRLPRPRPRPINHPRP 0.147

----------
test system: Escherichia coli TOP10; assay: shrunken log2 fold change of peptide-encoding DNA abundance (4.5 h post-induction vs induction); higher = less antimicrobial activity (less host growth inhibition); conditions: time post-induction: 4.5 h; library: site-saturation at positions 5, 18, 19, 20
READOUT TYPE: shrunken log2 fold change

RRIRSRPPRLPRPRPRPCHPPRP; 0.0162
RRIRYRPPRLPRPRPRPTHMPRP; -0.429

Observed shrunken log2 fold change on Escherichia coli TOP10 for RRIRGRPPRLPRPRPRPVIGPRP , please. 0.388

API: value(readout= shrunken log2 fold change, system= Escherichia coli TOP10, query= RRIRQRPPRLPRPRPRPPRQPRP ) 0.101

What is its shrunken log2 fold change for Escherichia coli TOP10? Entry: RRIRRRPPRLPRPRPRPFNEPRP -0.846

Report shrunken log2 fold change for RRIRHRPPRLPRPRPRPKSPPRP tested on Escherichia coli TOP10. -0.0893

Request: shrunken log2 fold change, test system Escherichia coli TOP10, entry RRIRFRPPRLPRPRPRPSDGPRP -0.391

Quick check: shrunken log2 fold change on Escherichia coli TOP10, item RRIRLRPPRLPRPRPRPSFVPRP ? -0.392

For the record RRIRVRPPRLPRPRPRPLQGPRP , what value of shrunken log2 fold change is listed for Escherichia coli TOP10? -0.292

Param readout= shrunken log2 fold change; system= Escherichia coli TOP10; entry= RRIRKRPPRLPRPRPRPYKAPRP ; returns value. -0.0235

----------
system: Escherichia coli TOP10; assay: shrunken log2 fold change of peptide-encoding DNA abundance (4.5 h post-induction vs induction); higher = less antimicrobial activity (less host growth inhibition); details: time post-induction: 4.5 h; library: site-saturation at positions 5, 18, 19, 20
READOUT TYPE: shrunken log2 fold change

Some entries whose results are on file:
RRIRGRPPRLPRPRPRPNRHPRP; 0.231
RRIRGRPPRLPRPRPRPMSHPRP; 0.225
RRIRDRPPRLPRPRPRPPYMPRP; -0.464

Would you kindly share the measured shrunken log2 fold change for RRIRTRPPRLPRPRPRPVYLPRP ? -1.16

Need shrunken log2 fold change, item RRIRPRPPRLPRPRPRPYAGPRP -0.00254

What shrunken log2 fold change value was documented for this sequence, RRIRLRPPRLPRPRPRPFTQPRP ? -0.337

So what does the record say about shrunken log2 fold change for RRIRSRPPRLPRPRPRPDTLPRP ? -0.126

Which shrunken log2 fold change value belongs to RRIRDRPPRLPRPRPRPEGAPRP ? 1.78

----------
test system: Escherichia coli TOP10; test: shrunken log2 fold change of peptide-encoding DNA abundance (4.5 h post-induction vs induction); higher = less antimicrobial activity (less host growth inhibition); details: time post-induction: 4.5 h; library: site-saturation at positions 5, 18, 19, 20;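 note: peptides expressed intracellularly from a pBAD plasmid library in pooled LB shake-flask culture, induced with 0.3% L-arabinose, DNA abundance read by NGS, three biological replicates, DESeq2 with apeglm shrinkage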
Note that class boundaries on shrunken log2 fold change are b0 (below -0.2), b1 (-0.2 to below 0.02), b2 (0.02 or more)

RRIRIRPPRLPRPRPRPQHHPRP; b0

Category of RRIRTRPPRLPRPRPRPIYGPRP , please. b1

Note: place this sequence into its band. Item: RRIRMRPPRLPRPRPRPGFMPRP b2

Bin this entry: RRIRCRPPRLPRPRPRPMCTPRP b1

Class? Entry: RRIRHRPPRLPRPRPRPHVFPRP b1

Exam item: assign RRIRFRPPRLPRPRPRPCKAPRP to the correct category. b1

Kindly state the category for this sequence: RRIRTRPPRLPRPRPRPPTVPRP b2

Band for RRIRPRPPRLPRPRPRPTDWPRP ? b2

Please report the category associated with RRIRPRPPRLPRPRPRPQCFPRP , nothing else. b2

Looking at RRIRYRPPRLPRPRPRPEAHPRP , which class would you pick? b0

Which shrunken log2 fold change category applies to RRIRYRPPRLPRPRPRPLAMPRP here? b0

Exam item: assign RRIRVRPPRLPRPRPRPCGIPRP to the correct category. b2

Form: Item = RRIRERPPRLPRPRPRPLVHPRP ; Class = ? b1

Please let me know in which category the item RRIRSRPPRLPRPRPRPRKAPRP belongs. b1

# bin lookup: classify RRIRIRPPRLPRPRPRPLCKPRP by its shrunken log2 fold change b0

For RRIRMRPPRLPRPRPRPSHLPRP , which shrunken log2 fold change bin applies? b1

Bin this entry: RRIRERPPRLPRPRPRPFCIPRP b0

Form field 'band' for RRIRERPPRLPRPRPRPVITPRP b1
